- assay remarks: soluble on expression in E. coli; label from the status in PepcDB or PDB records
readout type: soluble on expression in E. coli

Give its soluble on expression in E. coli value. Item: MAHHHHHHMVVLKGGGTTYAVGNGRQMPWEEVPEGFKRRLAEQEEITPCVELRAIAQRCIEVEGFWAPNCVEATEQFHSCQAQHLAGCLPNWTHHNNNNINN
not soluble

Give its soluble on expression in E. coli value. Item: MAHHHHHHMSSASIVALSLSLSFSLGLLRSLGSARHIRYGHPHTNTSAYGGRHPRMQVMAAAARTYRHIVARELSTNFRAVASIVEAPFPTVLHPKAILVKNKYLGVNASDINFTAGIYQPDVRPPFACGFEAVGEVVDVGSGVKDLKAGAAVVTQSYGAFAEYQVVARRHAKPIPRVAREYLPLDLSATTASIALEHVLKPQPGERAVVTAAAGGTGQFAVQLLKHVYGCSVVGTCSSPSKEVFLTNTLKCDGVVNYKAEGGDTAAAFLRCYPRGVNIAYESVGGDLLEAVIQSLAPRGRILSLGCVSTYQCGSIEAACPSRKPLPLQLLAKSASLSTFFLPHFAKYGQLHFDRLCALHEQGLVQCCIDPTTFEGLEGVYDAIDWMFEQKNCGKVMVEL
not soluble

Give its soluble on expression in E. coli value. Item: MKVLVTGATSGLGRNAAQWLLEAGHEVYAIGRDQLAGEELRKLGATFIPLDLTMTTMEVCQQWLKTCDVVWHCAAKSAPWGNPQDFHQTNVVVTHKLAQAAGREGVKRFIHISSPAVYFDFRHHHDLPETYRASRFSSHYASSKYAAEQVLHECIAHYPDTTYVILRPRGLFGPHDRVIVPRLLQQLSRDRNVLRLPGGGQAQLDLTFVLNVVHAMMLATDNDGLRSGAIYNITNQEPQRLVTMLDSLLNQQLHINYTLQPVPYSLLSVVAAGMELVASMTQKEPLLTRYSVGAVYFDMTLNSERAINELGYRPRYSMAEGIVLAGEWLSAQRSGQHG
not soluble

Numbers sourced from the DeepSol protein solubility set.
